Catalogue of binders with associated binding signal
Molecular target: T1, UNK ZnF1-3 (human, UniProt Q9C0B0 31-174)
T1 sequence: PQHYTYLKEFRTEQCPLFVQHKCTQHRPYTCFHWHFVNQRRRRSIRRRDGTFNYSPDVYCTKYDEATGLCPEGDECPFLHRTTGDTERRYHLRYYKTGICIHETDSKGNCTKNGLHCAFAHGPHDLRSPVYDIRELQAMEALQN
Assay: nsRBNS (natural sequence RNA bind-n-seq); RBNS binding buffer (assumed for nsRBNS): 25 mM Tris pH 7.5, 150 mM KCl, 3 mM MgCl2, 0.01% Triton X-100, 500 ug/ml BSA, 20 U/ml SUPERase-In, 4 C; UNK is unkempt and MSI1 is Musashi-1; names of the RNAs are library labels; protein concentration not given here; high values mean tight binding
In all, about 24,000 sequences were measured (“enrichment r”: median about 0.99, highest 2% from about 3.7 on). Many of the other results were omitted from the sample, so the highest values are more common in it than they were.
OBSERVATION_TYPE: binding signal (enrichment R)

>>> experimental_result("chr6:52144354:52144355:-_ENSG00000112118_ENST00000229854|hu_hu|FALSE|FALSE (ssRNA) RNA: GGGAGUUCUACAGUCCGACGAUCGGCUGGGGCCUUCUCCGGCAUCUCCUGGAUGGUGAUGGUCUGGUGAUCCUUGUAGACAGAAAGGCCAUAUUCUGUCUCAAGGGGAUUGUUCUCCUCAUCCUUGGUAGGAUAGACAGAGCUCAACAGAGGAUUGAGCAUCA")
0.84
>>> experimental_result("chr2:71272186:71272187:+_ENSMUSG00000027018_ENSMUST00000028408|mus_mus|FALSE|FALSE (ssRNA) RNA: GGGAGUUCUACAGUCCGACGAUCCUGUGCCUGUAUUGCCAUAUCUUCACUGAAUCCUUGCAGUAAUCUUUCCCGGGAGAAACUGGGCAAAAAUUGACAAAACUUCACAAGCACAAAGUCUCUUAGUUUCAAAUAGCUUCUGGACAACAGAGGAUUGAGCAUCA")
1.25

Hey, just so you know, these numbers are from paper PMC12136788.
